Measurement notes: Cytotoxicity against human dermal papilla cells by Alamar blue assay
Format: cell-based
Conditions: read-out: TC50 (the source's name)
Task for the reader: assign each of the following compounds its reported CC50.

Input line: Please supply the value of reported CC50 for the item C[C@@H]1C[C@H]2O[C@@H]2CC/C=C/[C@@H](O)Cc2c(Cl)c(O)cc(O)c2C(=O)O1
Output line: > 100 µM

Input line: Please supply the value of reported CC50 for the item CC(=O)S[C@@H]1/C=C/CC(=O)Cc2c(Cl)c(O)cc(O)c2C(=O)O[C@H](C)C[C@H]2O[C@@H]21
Output line: > 100 µM

Input line: Please supply the value of reported CC50 for the item C[C@@H]1C[C@H]2O[C@@H]2\C=C/C=C/C(=N\OCc2ccccc2)Cc2c(Cl)c(O)cc(O)c2C(=O)O1
Output line: 65.6 µM

Input line: Please supply the value of reported CC50 for the item C[C@@H]1C[C@H]2O[C@@H]2CC/C=C/C(=O)Cc2cc(O)cc(O)c2C(=O)O1
Output line: 28.9 µM

---

Measurement notes: Cytotoxicity against human dermal papilla cells by Alamar blue assay
Format: cell-based
Conditions: read-out: TC50 (the source's name)
Task for the reader: assign each of the following compounds its reported CC50.

Input line: Please supply the value of reported CC50 for the item C[C@@H]1C[C@H]2O[C@@H]2\C=C/C=C/C(=N/OCc2ccccc2)Cc2c(Cl)c(O)cc(O)c2C(=O)O1
Output line: 42.1 µM

Input line: Please supply the value of reported CC50 for the item COc1cc(OC)c2c(c1Cl)CC(=O)/C=C/C=C\[C@H]1O[C@@H]1C[C@@H](C)OC2=O [DIMETHYL RADICICOL]
Output line: 8.4 µM

Input line: Please supply the value of reported CC50 for the item CC(=O)S[C@@H]1/C=C\CC(=O)Cc2c(Cl)c(O)cc(O)c2C(=O)O[C@H](C)C[C@H]2O[C@@H]21
Output line: > 100 µM

Input line: Please supply the value of reported CC50 for the item C[C@@H]1C[C@H]2O[C@@H]2/C=C\C=C\[C@H](O)Cc2c(Cl)c(O)cc(O)c2C(=O)O1
Output line: > 100 µM

Input line: Please supply the value of reported CC50 for the item C[C@@H]1C[C@H]2O[C@@H]2CC/C=C/[C@H](O)Cc2c(Cl)c(O)cc(O)c2C(=O)O1
Output line: > 100 µM

Input line: Please supply the value of reported CC50 for the item C[C@@H]1C[C@H]2O[C@@H]2C/C=C/CC(=O)Cc2c(Cl)c(O)cc(O)c2C(=O)O1
Output line: > 100 µM

Input line: Please supply the value of reported CC50 for the item C[C@@H]1C[C@H]2O[C@@H]2CCCCC(=O)Cc2c(Cl)c(O)cc(O)c2C(=O)O1 [TETRAHYDRORADICICOL]
Output line: > 100 µM

---

Measurement notes: Cytotoxicity against human dermal papilla cells by Alamar blue assay
Type: cell-based
Conditions: read-out: TC50 (the source's name)
Task for the reader: assign each of the following molecules its reported log10 CC50.
Plainly stated, the numbers are log10 of CC50 given in µM.

Input line: Please supply the value of reported log10 CC50 for the item C[C@@H]1C[C@H]2O[C@@H]2/C=C\C=C\C(=O)Cc2cc(O)cc(O)c2C(=O)O1 [MONOCILLIN I]
Output line: 0.46

Input line: Please supply the value of reported log10 CC50 for the item C[C@@H]1C[C@H]2O[C@@H]2/C=C\C=C\C(=O)Cc2c(Cl)c(O)cc(O)c2C(=O)O1 [RADICICOL]
Output line: 1.18

Input line: Please supply the value of reported log10 CC50 for the item C[C@H]1C[C@H]2O[C@@H]2CC/C=C/C(=O)Cc2c(Cl)c(O)cc(O)c2C(=O)O1 [POCHONIN A]
Output line: 1.76

Input line: Please supply the value of reported log10 CC50 for the item C[C@@H]1C[C@H]2OC(=O)O[C@H]2/C=C\C=C\C(=O)Cc2c(Cl)c(O)cc(O)c2C(=O)O1
Output line: 1.45

Input line: Please supply the value of reported log10 CC50 for the item C[C@@H]1C[C@H]2S[C@@H]2/C=C\C=C\C(=O)Cc2c(Cl)c(O)cc(O)c2C(=O)O1
Output line: 1.45

Input line: Please supply the value of reported log10 CC50 for the item CC(=O)Oc1cc(OC(C)=O)c2c(c1Cl)CC(=O)/C=C/C=C\[C@H]1O[C@@H]1C[C@@H](C)OC2=O [RADICICOL DIACETATE]
Output line: 1.46

Input line: Please supply the value of reported log10 CC50 for the item C[C@@H]1C[C@@H](O)C(Cl)/C=C\C=C\C(=O)Cc2c(Cl)c(O)cc(O)c2C(=O)O1 (single isomer, unassigned)
Output line: 1.62

Input line: Please supply the value of reported log10 CC50 for the item C[C@@H]1C[C@H]2O[C@@H]2\C=C/C=C/C(=N\O)Cc2c(Cl)c(O)cc(O)c2C(=O)O1
Output line: 1.95

---

Task for the reader: assign each of the following compounds its reported CC50.
Measurement notes: Cytotoxicity against human dermal papilla cells by Alamar blue assay
Format: cell-based
Conditions: read-out: TC50 (the source's name)

Input line: Please supply the value of reported CC50 for the item C[C@@H]1C[C@H]2O[C@@H]2CCCC[C@H](O)Cc2c(Cl)c(O)cc(O)c2C(=O)O1
Output line: > 100 µM

Input line: Please supply the value of reported CC50 for the item CO\N=C1/C=C/C=C\[C@H]2O[C@@H]2C[C@@H](C)OC(=O)c2c(O)cc(O)c(Cl)c2C1
Output line: > 100 µM

Input line: Please supply the value of reported CC50 for the item C[C@@H]1C[C@H]2O[C@@H]2C(Sc2ccccc2)/C=C\CC(=O)Cc2c(Cl)c(O)cc(O)c2C(=O)O1 (some centres not stated)
Output line: > 50 µM

Input line: Please supply the value of reported CC50 for the item C[C@@H]1C[C@H]2O[C@@H]2CCCC[C@@H](O)Cc2c(Cl)c(O)cc(O)c2C(=O)O1
Output line: > 100 µM

Input line: Please supply the value of reported CC50 for the item C[C@@H]1C[C@H]2O[C@@H]2CC/C=C/[C@H](O)Cc2cc(O)cc(O)c2C(=O)O1
Output line: > 100 µM

Input line: Please supply the value of reported CC50 for the item C[C@@H]1C[C@H]2O[C@@H]2[C@H](Sc2ccccc2)CCCC(=O)Cc2c(Cl)c(O)cc(O)c2C(=O)O1
Output line: > 50 µM

Input line: Please supply the value of reported CC50 for the item CO/N=C1/C=C/C=C\[C@H]2O[C@@H]2C[C@@H](C)OC(=O)c2c(O)cc(O)c(Cl)c2C1
Output line: > 100 µM
